These measurements were taken from PubChem BioAssay (Tox21).

- testDetails: qHTS assay to test for compound auto fluorescence at 535 nm (green) in HepG2 cells (AID 720675); note: % is set by controls: 0 for no effect and ±100 for the full control effect
- testConditions: green autofluorescence 485/535 nm, 1 h; series mostly up to 91.3 µM
The source made the active and inactive calls. Calls come from the whole dose curve; as a rule, active = well fitted curve in the direction sought with a large enough effect in the repeat runs; inconclusive = weak or mixed curves; inactive = flat fitted curve, though single readings scatter.
assayReadout: fluorescence, % of fluorescein control

Study these solved cases before continuing.
>>> valuemeasured("CC(=O)c1cccnc1")
"inactive"
>>> valuemeasured("CC/C=C\\CCO")
"inactive"
>>> valuemeasured("CCCCCCC/C=C/C=O")
"inactive"
>>> valuemeasured("CCC(C)C1N=C(C)C(C)S1 (configuration not stated)")
"inactive"
>>> valuemeasured("Nc1ncnc2c1ncn2[C@@H]1O[C@H](CO)[C@@H](O)[C@H]1O")
"inactive"

Enquiry: Please look up its fluorescence, % of fluorescein control: O=C(O)c1ccc2c(c1)nc(C(=O)NC1CCN(C3CC3)CC1)n2Cc1cc(-c2ccc(Cl)s2)on1
Return: -0.0395% [at 18.6 µM] (inactive)

Enquiry: Please look up its fluorescence, % of fluorescein control: CCC(C)CCCC(C)(C)O (configuration not stated)
Return: inactive

Enquiry: Please look up its fluorescence, % of fluorescein control: N#Cc1ccc(CC(=O)c2cccc(C(F)(F)F)c2)cc1
Return: inactive

Enquiry: Please look up its fluorescence, % of fluorescein control: CCCN(C1CCN(C(=O)C2CCNCC2)CC1)[C@@H]1CCc2ccc(OC)cc2C1
Return: inactive

Enquiry: Please look up its fluorescence, % of fluorescein control: O=c1[nH]nc(-c2ccc([N+](=O)[O-])o2)o1
Return: inactive

Enquiry: Please look up its fluorescence, % of fluorescein control: CC(C)C[C@H](NC(=O)[C@H](Cc1ccccc1)NC(=O)c1cnccn1)B(O)O
Return: inactive

Enquiry: Please look up its fluorescence, % of fluorescein control: COc1ccc(/C=C/c2cc(OC)cc(=O)o2)cc1
Return: inactive

Enquiry: Please look up its fluorescence, % of fluorescein control: Nc1ccc(F)cc1F
Return: inactive

Enquiry: Please look up its fluorescence, % of fluorescein control: O=c1c2ccccc2oc2ccccc12
Return: inactive

Enquiry: Please look up its fluorescence, % of fluorescein control: Nc1ccc(-c2ccc(F)cc2)cc1
Return: inactive

Enquiry: Please look up its fluorescence, % of fluorescein control: CC(=O)Nc1ccccc1O
Return: inactive

Enquiry: Please look up its fluorescence, % of fluorescein control: Clc1cccc(C(c2ccc3nc[nH]c3c2)n2ccnc2)c1 (configuration not stated)
Return: inactive

Enquiry: Please look up its fluorescence, % of fluorescein control: O=C(O)c1c2ccccc2cc2ccccc12
Return: inactive

Enquiry: Please look up its fluorescence, % of fluorescein control: COc1ccc(/C=C/S(=O)(=O)NC(=O)c2ccc(C)cc2Cl)cc1
Return: inactive

Enquiry: Please look up its fluorescence, % of fluorescein control: CCCOC(C)=O
Return: inactive

Enquiry: Please look up its fluorescence, % of fluorescein control: SCCOCCOCCS
Return: inactive

Enquiry: Please look up its fluorescence, % of fluorescein control: O=P(c1ccccc1)(c1ccccc1)c1ccccc1
Return: inactive

Enquiry: Please look up its fluorescence, % of fluorescein control: CC1(C)[C@@H]2CC[C@]3(C2)[C@@H]1C(=O)CCC3(C)C
Return: inactive

----------
- testDetails: qHTS assay to identify small molecule antagonists of the androgen receptor (AR) signaling pathway using the MDA cell line in the presence of 0.5 nM R1881 - cell viability counter screen (AID 1259242); note: % is set by controls: 0 for no effect and ±100 for the full control effect; nearly all actives have a fitted effect of over 45% in size
- testConditions: MDA-kb2 viability, CellTiter-Fluor protease fluorescence, 16 h; series mostly up to 92.4 µM
Records with an inconclusive call do not appear. Calls of active or inactive are those of the source. Calls follow the shape of the dose curve; as a rule, active = well fitted cell-killing curve with a large enough effect in the repeat runs; inconclusive = weak or mixed curves, or effect the other way; inactive = flat fitted curve, though single readings scatter.
assayReadout: viability change, negative = cytotoxic

Study these solved cases before continuing.
>>> valuemeasured("Cc1ccc(Cl)c(OCC(O)CNC(C)(C)C)c1 (stereo unspecified)")
"inactive"
>>> valuemeasured("O=C(O)c1c2ccccc2cc2ccccc12")
"inactive"
>>> valuemeasured("CC(=O)Nc1ccccc1O")
"inactive"
>>> valuemeasured("CC(C)(O)C(=O)O")
"inactive"
>>> valuemeasured("Nc1cccc2c(=O)[nH][nH]c(=O)c12")
"inactive"
>>> valuemeasured("CC(COc1ccccc1)NC(C)C(O)c1ccc(O)cc1 (stereo unspecified)")
"inactive"

Enquiry: Please look up its viability change, negative = cytotoxic: CCCCCCCCOCCCN
Return: inactive

Enquiry: Please look up its viability change, negative = cytotoxic: C[Si](C)(C)O[Si](C)(C)O[Si](C)(C)C
Return: inactive

Enquiry: Please look up its viability change, negative = cytotoxic: Clc1cccc(C(c2ccc3nc[nH]c3c2)n2ccnc2)c1 (stereo unspecified)
Return: inactive

Enquiry: Please look up its viability change, negative = cytotoxic: CC(C)(Cc1c[nH]c2ccccc12)NCC(O)COc1ccccc1C#N (stereo unspecified)
Return: inactive

Enquiry: Please look up its viability change, negative = cytotoxic: C=CC(=O)NC(C)(C)C
Return: inactive
